Consider the following variants and their measured protein stability index readings.
B1: TRIM55 (parent)
chain: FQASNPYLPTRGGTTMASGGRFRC

Variants of: B1
Experiment: protein stability index of a GFP-peptide fusion (GPS, HEK-293T) (PSI 1-6); higher = more stable;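 note: lentivirally expressed fusions sorted by FACS into six bins by GFP to DsRed ratio, PSI derived from sequencing read proportions per bin multiplied by bin number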
Settings: c terminus: a fixed tail appended

Use these answered entries as a reference point.
P6E
2.26
S18G
2.35

Prompt: What measured protein stability index goes with `F22C` ?
Completion: 2.18
